// provenance: the supplement of paper PMC8253809

Tested on: SUDIPGXIX (diffuse intrinsic pontine glioma line)
method-summary: EC50 (inflection of fitted growth-inhibition curve) (log10 M)
quantity-kind: EC50 (log10 M)
Form: value (number only, do not type unit).

Examples with their reported EC50 (log10 M) follow.
O=C(Nc1c[nH]nc1-c1nc2ccc(CN3CCOCC3)cc2[nH]1)NC1CC1 [AT9283] = -5.33
COc1ccc(Cn2ccc3ccc(C(=O)NO)cc32)cc1 = -4.78
C#Cc1cccc(Nc2ncnc3cc(OCCOC)c(OCCOC)cc23)c1 [ERLOTINIB] = -5.24

Returns the measured EC50 (log10 M) for the input compound. Input: CN(C)C/C=C/C(=O)Nc1cc2c(Nc3ccc(F)c(Cl)c3)ncnc2cc1O[C@H]1CCOC1 [AFATINIB]
-4.83

Further, for CC(=O)Nc1cccc(-n2c(=O)n(C3CC3)c(=O)c3c(Nc4ccc(I)cc4F)n(C)c(=O)c(C)c32)c1 [TRAMETINIB] ?
-7.25

Further, for NC(=O)Nc1sc(-c2ccc(F)cc2)cc1C(N)=O [TPCA-1] ?
-4.66

Further, for O=C(c1ccccc1)c1ccc2nc(NC(=O)c3csc(C4CCN(c5ncnc6ccsc56)CC4)n3)[nH]c2c1 ?
-4.95
